Task for the reader: assign each of the following compounds its reported viability at 28.5 h, 10 µM.
ASSAY INFO: in vitro
APPLIED CONDITIONS: human, hela cells, % viability
# unit: % | format: bare number

Query block: Which viability at 28.5 h, 10 µM is reported for this compound? "CC(=O)Nc1cccc(NC(=O)c2cccc(Cn3cc(Cl)cn3)c2)c1"
Result block: 90.5

Query block: Give the measured viability at 28.5 h, 10 µM of O=C(O)C1C2C=CC(O2)C1C(=O)Nc1ccc(S(=O)(=O)N2CCc3ccccc32)cc1 (stereo not shown) .
Result block: 91.1

Query block: Item "CC(C)c1ccc(S(=O)(=O)N(CCC#N)Cc2ccccc2)cc1" has what recorded viability at 28.5 h, 10 µM?
Result block: 90.7

Query block: Item under review: CSc1nc(NC(=O)Cc2c[nH]c3ccccc23)cc(N2CCNCC2)n1 [CBK050265T] . Reported viability at 28.5 h, 10 µM?
Result block: 84.4

Query block: # get_value(readout='viability at 28.5 h, 10 µM', item= "CC(=O)Nc1ccc(S(=O)(=O)N2CCN(c3cc4[nH]c(=O)[nH]c4cc3[N+](=O)[O-])CC2)cc1" )
Result block: 97.7

Query block: # lookup: viability at 28.5 h, 10 µM of "NS(=O)(=O)c1ccc(CCNC(=O)C2CC2)cc1"
Result block: 107

Query block: Sample "Cc1ccc(Cn2nc(NC(=O)c3ccccc3)c3ccccc32)cc1" — what was its viability at 28.5 h, 10 µM?
Result block: 97.5

Query block: Report viability at 28.5 h, 10 µM for "Cc1ccc(S(=O)(=O)Nc2ccccc2C(N)=O)cc1" please.
Result block: 76

Query block: Consider the compound shown here: O=C1N=C(NC2CCCCCC2)SC1C(=O)N1CCCCCC1 (stereo not shown) What is its recorded viability at 28.5 h, 10 µM?
Result block: 93.1

Query block: Which viability at 28.5 h, 10 µM value belongs to CC(C(=O)NCCc1ccncc1)n1cnc2ccccc21 (stereo not shown) ?
Result block: 103

Query block: For CC1(OCCCN2CCCCC2)SC(NC2CC3CCC2C3)=NC1=O (stereo not shown) , what is its reported viability at 28.5 h, 10 µM?
Result block: 87.2

Query block: Report viability at 28.5 h, 10 µM for O=S1(=O)CCC(c2nc(-c3ccc(Br)o3)no2)C1 (stereo not shown) please.
Result block: 77.8

Query block: What value of measured viability at 28.5 h, 10 µM is listed for "N#Cc1cnc(NCc2ccccc2)nc1N" ?
Result block: 90

Query block: Recorded viability at 28.5 h, 10 µM for COc1ccc(C(=O)N2CCC3(CCCN(CCN4C(=O)c5ccccc5C4=O)C3)C2)cc1OC (stereo not shown) , please?
Result block: 98.1

Query block: Name the reported viability at 28.5 h, 10 µM value associated with the compound "Nc1nc(SCC(=O)N2CCC(c3noc4ccc(F)cc34)CC2)n[nH]1"
Result block: 91.4

Query block: What value of viability at 28.5 h, 10 µM has been reported for the following compound? "CCOc1ccccc1NC(=O)c1cc(CC(C)C)oc1C"
Result block: 101

Query block: Item under review: "Cc1ccnn1CCC(=O)NC1(c2ccc(F)cc2)CCCC1" . Reported viability at 28.5 h, 10 µM?
Result block: 115

Query block: Given "O=C(O)Cc1cc2c(n1Cc1ccc(F)cc1)CCCC2=O" , state its recorded viability at 28.5 h, 10 µM.
Result block: 93.8

Query block: What does the record list as viability at 28.5 h, 10 µM for "O=C(CSCc1ccccc1)Nc1ccc(S(=O)(=O)N2CCOCC2)cc1" ?
Result block: 93.3

Query block: Which viability at 28.5 h, 10 µM is listed for "Cc1cccc(NC(=O)NC(=O)C2CCN(CCOc3ccccc3)CC2)c1" ?
Result block: 89.9

Query block: What does the record list as viability at 28.5 h, 10 µM for "Cc1nn(C)c(Cl)c1S(=O)(=O)NC1(c2ccc(F)cc2)CC1" ?
Result block: 97.5

Query block: Can you share its viability at 28.5 h, 10 µM? I mean this compound: CCN(CC)C(=O)C1CCCN(C(=O)Nc2ccc3c(c2)OCCO3)C1 (stereo not shown)
Result block: 92.3

Query block: Can you look up the measured viability at 28.5 h, 10 µM of "O=C(CO)N1CC2(CCN(CCC(c3ccccc3)c3ccccc3)CC2)c2ccccc21" for me?
Result block: 106

Query block: Recorded viability at 28.5 h, 10 µM of Nc1nc(C2COc3ccccc3O2)ncc1S(=O)(=O)c1ccc(Cl)cc1 (stereo not shown) , please.
Result block: 96.2

Query block: Field request: viability at 28.5 h, 10 µM | item: "Cc1ccc(NS(=O)(=O)c2ccc(OC(F)(F)F)cc2)c(CO)c1"
Result block: 86.8

Query block: Would you mind telling me what viability at 28.5 h, 10 µM value was observed for "Cc1ccc(-c2cc(C(=O)N3CCOCC3)c3cc(Br)ccc3n2)cc1" ?
Result block: 86.4

Query block: Which viability at 28.5 h, 10 µM value belongs to COc1ccc(C(=O)N2CCC3(CCN(Cc4c(F)cccc4F)C3)C2)cc1OC (stereo not shown) ?
Result block: 92.8

Query block: Reported viability at 28.5 h, 10 µM, compound "COCC(=O)N1CCC(NC(=O)N(CCc2ccccc2)Cc2ccccc2)CC1" : ____
Result block: 102

Query block: Bench note: what viability at 28.5 h, 10 µM did "CC(C)n1nccc1C(=O)NC1CCN(Cc2cccc(F)c2)CC1" show?
Result block: 84.5

Query block: Return reported viability at 28.5 h, 10 µM; argument: "O=c1n(CC2CCCCC2)c2ccccc2n1S(=O)(=O)c1cccc(Cl)c1"
Result block: 91.4

Query block: Consider the compound shown here: "c1csc(-c2nccnc2NCCCN2CCOCC2)c1" What is its recorded viability at 28.5 h, 10 µM?
Result block: 84.6
